Test: Metabolic stability of parent peptide in rat hepatocytes
Conditions: male, Sprague-Dawley
Quick list: half-life at 10 µM per entry.

MOLECULE: CSCC[C@H](NC(=O)[C@H](CC(C)C)NC(=O)[C@H](Cc1c[nH]cn1)NC(=O)CNC(=O)[C@@H](NC(=O)[C@H](C)NC(=O)[C@H](Cc1c[nH]c2ccccc12)NC(=O)[C@H](CCC(N)=O)NC(=O)CCCCCNC(=O)c1ccc(F)cc1)C(C)C)C(N)=O
half-life at 10 µM: ~3.8 min

Request: Look up half-life at 10 µM of CSCC[C@H](NC(=O)[C@H](CC(C)C)NC(=O)[C@H](Cc1c[nH]cn1)NC(=O)CNC(=O)[C@@H](NC(=O)[C@H](C)NC(=O)[C@H](Cc1c[nH]c2ccccc12)NC(=O)[C@H](CCC(N)=O)NC(=O)CCCCCNC(=O)C(C)F)C(C)C)C(N)=O (some centres unmarked) and report it.
Result: ~25 min
